cytotoxicity listing for selected compounds.
protocol notes: viability loss of HPDE-C7K cells – cell-based, fluorescence, HTS, primary screen (AID 431);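 further: 0% = DMSO solvent wells and 100% = doxorubicin-treated wells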
experimental setup: HPDE-C7K KRASV12 cells, Alamar Blue viability, 48 h; at 10 µM; active compounds read high
About 1,100 (1.7%) of roughly 63,000 compounds were called active. What follows is part of a selection rich in actives, with near analogues and random picks from the rest. Potency and affinity values are given separately.
measured endpoint: cytotoxicity (%)

1) CCOC(=O)C1=C(CS(=O)(=O)c2ccccc2)NC(=O)NC1c1ccccc1OCC (stereo not drawn) : -3.7
2) O=C(NC1=NCCS1)c1ccc2c(c1)C(=O)N(Cc1ccco1)C2=O : -7.1
3) N#Cc1c(-c2ccco2)nc(SCc2ccc(F)cc2)[nH]c1=O : 68.9
4) C=C(C)Cn1c(Sc2nc3ccccc3[nH]2)nc2c1c(=O)[nH]c(=O)n2C : 21.2
5) Cc1cccc(-n2c(SCC(=O)Nc3ccc4c(c3)OCO4)nnc2-c2ccoc2C)c1 : 53.6
6) Cc1cc(C)n(CNc2nc(C(F)(F)F)cs2)n1 : -4.6
7) Cc1nnc2sc(-c3cc4ccccc4o3)nn12 : 8.5
8) Cc1cc(C(=O)Oc2ccccc2C(=O)O)c(C)o1 : -8
9) Cc1cccc(-n2c(SCC(=O)Nc3nonc3C)nnc2-c2ccoc2C)c1 : -13.8
10) O=S(=O)(c1ccc(F)cc1)N1CCC(N2CCN(c3ccccc3)CC2)CC1 : 16.8
11) COc1ccccc1-c1nn2c(-c3ccccc3Cl)nnc2s1 : -7.7
12) O=C(Nc1ccccc1C(F)(F)F)N1CCN(c2ccc3nnc(-c4ccc(F)cc4)n3n2)CC1 : 1.9
13) Cc1nc(SCc2cccc(F)c2)[nH]c(=O)c1C#N : -15.2
14) COc1ccccc1-c1nnc2sc(-c3cc4ccccc4o3)nn12 : 61.8
15) N#Cc1c(-c2ccco2)nc(SCC(=O)Nc2cccc(Cl)c2)[nH]c1=O : 17.5
16) CCCCCOc1ccc(OC(=O)c2ccncc2)cc1 : -0.5
17) O=C(NCc1ccco1)c1ccc2c(c1)C(=O)c1ccccc1-2 : 5.3
18) O=C1c2ccccc2-c2onc3ccc(NCc4ccco4)c1c23 : 51.6
19) CCOC(=O)c1oc2ccc(Br)cc2c1CSc1nnc(C)s1 : -7.5
20) Cn1c(=O)c2c(nc(SCC(=O)O)n2Cc2cccc(C(F)(F)F)c2)n(C)c1=O : -7.6
21) c1coc(-c2nnc(SCc3cn4ccccc4n3)o2)c1 : -5.9
22) CCn1c(SCC(=O)NCCc2ccc(F)cc2)nnc1-c1cccs1 : 4.9
23) O=C(NCCCN1CCCCCC1)c1ccc(CS(=O)(=O)Cc2ccccc2F)o1 : -3

====

protocol notes: viability loss of HPDE-C7K cells – cell-based, fluorescence, HTS, primary screen (AID 431);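 further: 0% = DMSO solvent wells and 100% = doxorubicin-treated wells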
experimental setup: HPDE-C7K KRASV12 cells, Alamar Blue viability, 48 h; at 10 µM; active compounds read high
Out of some 63,000 compounds screened, about 1,100 (1.7%) were called active. The full list was thinned out, with actives kept by preference. Potency and affinity values are given separately.
Values of cytotoxicity strictly less than 50% map to true, and values of at least 50% map to false.

1) Cc1c(C(=O)OC2CCCCC2)[nH]c2c1C(=O)CC(C)(C)C2 : true
2) CCOC(=O)c1ccc(NC(=O)CN2CCc3ccccc3C2)cc1 : false
3) Cc1c(C(=O)OCCOC(C)C)[nH]c2c1C(=O)CC(c1ccco1)C2 (stereo unspecified) : false
4) CCC(C)OC(=O)c1[nH]c2c(c1C)C(=O)CC(c1ccc(N(C)C)cc1)C2 (stereo unspecified) : true
5) O=C(CNCCC1=CCCCC1)Nc1ccccc1N1CCCCC1 : false
6) CC(C)CC(=O)Nc1ccccc1N1CCCC1 : true
7) CCOC(=O)c1ccc(NC(=O)CN2CCN(c3ccccc3)CC2)cc1 : true
8) CCOC(=O)c1ccc(NC(=O)N2CCc3ccccc32)cc1 : true
9) CSCCOC(=O)c1[nH]c2c(c1C)C(=O)CC(c1ccco1)C2 (stereo unspecified) : false
10) COCCNC(=O)c1ccc(NS(C)(=O)=O)cc1 : true
11) O=C(COc1ccccc1)Nc1ccccc1N1CCCCC1 : true

From: PubChem BioAssay AID431
